Sourced from paper PMC2959035

# assay-system: B RT-1 (HIV-1 subtype B RT, NL4-3) (Human immunodeficiency virus type 1 (NEW YORK-5 ISOLATE), UniProt P12497)
# Construct: gene gag-pol; p66/p51 heterodimer cut from the Pol (Gag-Pol) polyprotein; plasmid pbRT6H-PROT with co-expressed HIV-1 protease; 6-His tag; E. coli M15; Ni-NTA, DEAE- and SP-Sepharose; with p51 RT of Gag-Pol polyprotein
# assay-overview: RNA-dependent DNA polymerase assay, [3H]-dTTP incorporation
# Type: biochemical
parameter: pIC50
Reminder that pIC50 is minus the log10 of a molar concentration.

Sure, the documented pIC50 for Nc1ccn([C@@H]2CS[C@H](COP(=O)(O)OP(=O)(O)OP(=O)(O)O)O2)c(=O)n1 is 5.57

====

# assay-system: B RT-2 (HIV-1 subtype B RT, HXB2) (HIV-1 M:B_HXB2R)
# Construct: gene gag-pol; p66/p51 heterodimer cut from the Pol (Gag-Pol) polyprotein; plasmid pRT6H-PROT with co-expressed HIV-1 protease; 6-His tag; E. coli M15; Ni-NTA, DEAE- and SP-Sepharose; with p51 RT of Gag-Pol polyprotein
# assay-overview: RNA-dependent DNA polymerase assay, [3H]-dTTP incorporation
# Assay type: biochemical
# condition-summary: read-out: IC50 (μM)^a / B RT-2^c
Reported values of IC50 for individual entries
Dear colleague, please return just the value in µM, with no unit written.

smiles=C[C@H](Cn1cnc2c(N)ncnc21)OCP(=O)(O)OP(=O)(O)OP(=O)(O)O parameter=IC50 assay_result=2.1

// below: IC50 requested for another compound
For reference, reported IC50 for Cc1cc(C#N)cc(C)c1Oc1nc(Nc2ccc(C#N)cc2)nc(N)c1Br stands at 0.16

====

# assay-system: C RT-2 (HIV-1 subtype C RT, isolate M01) (HIV-1 M:C_92BR025)
# Construct: gene gag-pol; p66/p51 heterodimer cut from the Pol (Gag-Pol) polyprotein; His-tagged, E. coli; with p51 RT of Gag-Pol polyprotein
# assay-overview: RNA-dependent DNA polymerase assay, [3H]-dTTP incorporation
# Format: biochemical
# condition-summary: HIV-1 PBS RNA/dPR template/primer 30 nM, dNTPs 5 μM each, 6 mM MgCl2, 60 mM KCl, pH 7.8, 37°C, 30 min; 150 μM sodium pyrophosphate included; nucleotide analogue, competitive at active site; read-out: IC50 (μM)^a / C RT-2 ^e
parameter: IC50 (µM)
# output: bare number, implied unit µM

Entry Cc1cn([C@H]2C[C@H](N=[N+]=[N-])[C@@H](CO[P@](=O)(O)O[P@](=O)(O)OP(=O)(O)O)O2)c(=O)[nH]c1=O , IC50 reported as 3.8

====

# assay-system: B RT-1 (HIV-1 subtype B RT, NL4-3) (Human immunodeficiency virus type 1 (NEW YORK-5 ISOLATE))
# Construct: gene gag-pol; p66/p51 heterodimer cut from the Pol (Gag-Pol) polyprotein; plasmid pbRT6H-PROT with co-expressed HIV-1 protease; 6-His tag; E. coli M15; Ni-NTA, DEAE- and SP-Sepharose; with p51 RT of Gag-Pol polyprotein
# assay-overview: RNA-dependent DNA polymerase assay, [3H]-dTTP incorporation
# Format: biochemical
# condition-summary: read-out: IC50 (μM)^a / B RT-1^b
As shown below, each of these compounds has a reported IC50 value.
Please respond with the number in µM and leave the unit unwritten.

smiles=C[C@H](Cn1cnc2c(N)ncnc21)OCP(=O)(O)OP(=O)(O)OP(=O)(O)O parameter=IC50 assay_result=2.5

The reported IC50 of the compound Cc1cc(C#N)cc(C)c1Oc1nc(Nc2ccc(C#N)cc2)nc(N)c1Br was 0.17
